Each record here notes measured apparent KD of MS2 coat protein.
- Test system: MS2 coat protein
- method notes: apparent KD of MS2 coat protein; designed switch direction (-1 OFF switch, 1 ON switch): -1; higher = weaker reporter binding
- conditions used: input ligand: microRNA oligo, concentration not stated
value kind: apparent KD of MS2 coat protein (nM)

polymer sequence: GGUACUCAAAGAGUACCAAUACGAACAUGAGGAUCACCCAUGUAGGAUAUGCUACUCAAAGAGUAGCAGAAGGAUAUGAUGAAU [Far Half Aptamer v16] (Eterna round: R96, puzzle: Exclusion NG 3)
readout unit: nM
result value: 30.8

polymer sequence: AGAGUGCUGCGAGGAUAUACAUGAGGAUCACCCAUGUUUUCGUGUGAGGCUUUGCCUCACACGAAGUAGAAGGCGCAGUACUCA [Mat - Exclusion NG 2 - Mod of JL - D32] (Eterna round: R96, puzzle: Exclusion NG 2)
readout unit: nM
result value: 9.46

polymer sequence: AAUUAUUAUUGAGGAUAUCGUAUUGAAACAAUACGAGAAGGCGGAAUAAACAUGAGGAUCACCCAUGUGAGCCUGAUGCUUAUG [Ex NG1 #43] (Eterna round: R96, puzzle: Exclusion NG 1)
readout unit: nM
result value: 21.1

polymer sequence: ACAUGAGGAUCACCCAUGUCCGUCUGGUCUGUCUCGGCUGUCGAGGAUAUAGCUCGGUAUCCGCGCUAGAAGGCGGGAGUCGGC [Aenatbe mod 96] (Eterna round: R96, puzzle: Exclusion NG 3)
readout unit: nM
result value: 17.3
